Tested on: CAMK1G
Conditions: concentration: 1 μM,replicates: in singlicate; n = 1;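 further: KINOMEscan kinase panel screen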
Cut-off 10% on %Inh: below means true (1), at or above means false (0).

The following molecules have reported results that may help.
Cl.Cl.NC[C@H](Cc1ccc(C(F)(F)F)cc1)NC(=O)c1cc(Br)c(-c2ccnc3[nH]ccc23)s1 | false (0)
O=C(NCCNc1ccnc(NCc2ccc(F)cc2)n1)c1cc2ccccc2s1 | true (1)
CCn1c(-c2nonc2N)nc2c(C#CC(C)(C)O)nc(OCCN)cc21.Cl.Cl | true (1)
Cc1occc1-c1nc(N)c(OC[C@@H](N)Cc2c[nH]c3ccccc23)cc1-c1cc2c(C)n[nH]c2cn1 | false (0)
COc1ccc(C[C@@H](CN)NC(=O)c2cc(Br)c(-c3ccnc4[nH]ccc34)s2)cc1.Cl.Cl | false (0)
O=C(NCCCN1CCOC1=O)c1cnc(NCc2cc(Cl)ccc2Cl)nc1NC1CCCC1 | true (1)

Enquiry: Criterion: %Inh strictly below 10%. Is it met by CN(C)CC(O)COc1ccc(Nc2nccc(-c3cnn4nc(N5CCOCC5)ccc34)n2)cc1 (centres unmarked) ?
Return: false (0)

Enquiry: Criterion: %Inh strictly below 10%. Is it met by C=CC(=O)Nc1cc2c(Nc3ccc(F)c(Cl)c3)ncnc2cc1OCCCN1CCOCC1 ?
Return: true (1)

---

Tested on: VRK2
Conditions: concentration: 1 μM,replicates: in singlicate; n = 1
REPORTED METRIC: %Inh
Dear colleague, please send the value followed by its unit.

CCN(CC)CCCCNc1ncc2cc(-c3c(Cl)cccc3Cl)c(NC(=O)NC(C)(C)C)nc2n1 yielded %Inh of 0%

Cl.Cl.NC[C@H](Cc1ccc(C(F)(F)F)cc1)NC(=O)c1cc(Br)c(-c2ccnc3[nH]ccc23)s1 yielded %Inh of 0%

C[C@@H](Oc1cc(-c2cnn(C3CCNCC3)c2)cnc1N)c1c(Cl)ccc(F)c1Cl yielded %Inh of 11%

CNC(=O)c1ccccc1Sc1ccc2c(/C=C/c3ccccn3)n[nH]c2c1 yielded %Inh of 0%

C[C@@H]1CCN(C(=O)CC#N)C[C@@H]1N(C)c1ncnc2[nH]ccc12 yielded %Inh of 0%

Cc1ccc(-n2nc(C(C)(C)C)cc2NC(=O)Nc2ccc(OCCN3CCOCC3)c3ccccc23)cc1 yielded %Inh of 0%

C[C@H]1Oc2cc(cnc2N)-c2c(nn(C)c2C#N)CN(C)C(=O)c2ccc(F)cc21 yielded %Inh of 42%

Nc1nc(Nc2ccccc2)cc(-c2ccc3c(N)n[nH]c3c2)n1 yielded %Inh of 0%

---

Tested on: TEC
Conditions: concentration: 1 μM,replicates: in singlicate; n = 1
REPORTED METRIC: %Inh (%)
Please respond with the number in % and leave the unit unwritten.

Check out these entries, answers already filled in.
Nc1nc(Nc2ccccc2)cc(-c2ccc3c(N)n[nH]c3c2)n1 | 0
CC(C)N1C(=O)Cc2cc(Nc3ncc(C(F)(F)F)c(NCc4cccc(S(C)(=O)=O)c4)n3)ccc21 | 10
C[C@@H]1CCN(C(=O)CC#N)C[C@@H]1N(C)c1ncnc2[nH]ccc12 | 39
NC(=O)c1cc(-c2ccccc2)cc2c(C3CCNCC3)c[nH]c12 | 24
Cc1n[nH]c2ccc(-c3cc(OC[C@@H](N)Cc4ccccc4)cnc3-c3ccoc3)cc12.O=C(O)C(F)(F)F.O=C(O)C(F)(F)F | 0
Cl.Oc1cc(-c2nc(-c3ccccc3)[nH]c2-c2ccncc2)ccc1Cl | 1
Cc1ccc(-n2nc(C(C)(C)C)cc2NC(=O)Nc2ccc(OCCN3CCOCC3)c3ccccc23)cc1 | 34
COc1ccc(C[C@@H](CN)NC(=O)c2cc(Br)c(-c3ccnc4[nH]ccc34)s2)cc1.Cl.Cl | 0

CN(C)CC(O)COc1ccc(Nc2nccc(-c3cnn4nc(N5CCOCC5)ccc34)n2)cc1 (stereo not drawn) yielded %Inh of 7

CC(C)Nc1cc(-c2ccc3c(N)n[nH]c3c2)nc(N)n1 yielded %Inh of 0

CNC(=O)c1ccccc1Sc1ccc2c(/C=C/c3ccccn3)n[nH]c2c1 yielded %Inh of 0

Cc1ccc2c(-c3ccncc3)c(-c3ccc(F)cc3)nn2c1.Cl yielded %Inh of 0

O=C(NCCCN1CCOC1=O)c1cnc(NCc2cc(Cl)ccc2Cl)nc1NC1CCCC1 yielded %Inh of 18

C[C@H]1Oc2cc(cnc2N)-c2c(nn(C)c2C#N)CN(C)C(=O)c2ccc(F)cc21 yielded %Inh of 0

Cc1cc2cn[nH]c2cc1-c1cccc2c(N)c(C(N)=O)nnc12 yielded %Inh of 94.9
